Answer each item with its documented pIC50.
# Target or test system: KRAS G12V (Homo sapiens (Human), UniProt P01116+P62937, G12V)
# Sequence (P01116-2 other isoform, or with tags, fused parts or gaps G12V): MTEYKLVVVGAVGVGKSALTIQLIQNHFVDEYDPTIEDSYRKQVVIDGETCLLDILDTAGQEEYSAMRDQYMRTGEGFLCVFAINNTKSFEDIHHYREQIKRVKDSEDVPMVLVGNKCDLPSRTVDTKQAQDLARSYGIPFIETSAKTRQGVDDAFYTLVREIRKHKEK
# Sequence (P62937 whole entry): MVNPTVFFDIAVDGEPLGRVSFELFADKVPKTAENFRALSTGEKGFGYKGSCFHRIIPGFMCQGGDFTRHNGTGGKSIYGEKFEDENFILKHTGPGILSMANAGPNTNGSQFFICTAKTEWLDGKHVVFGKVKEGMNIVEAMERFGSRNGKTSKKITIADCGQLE
# Procedure text: Ras-Raf (BRAF RBD) disruption / FRET / MOA assay, KRAS G12V
# Format: biochemical
# Experimental context: read-out: IC50* KRAS G12V FRET data
pIC50: −log10 of the molar value.

CCn1c(-c2cccnc2[C@H](C)OC)c2c3cc(ccc31)-c1csc(n1)C[C@H](NC(=O)[C@H](C(C)C)N(C)C(=O)N1CCC3(CC1)CN(C(=O)/C=C/CN1CCOCC1)C3)C(=O)N1CCC[C@H](N1)C(=O)OCC(C)(C)C2 (atropisomer, axis not shown) [Example A669]
6.00 to 7.00

Now let's try a different one.
Task item: Recorded pIC50 of CCn1c(-c2cccnc2[C@H](C)OC)c2c3cc(ccc31)-c1csc(n1)C[C@H](NC(=O)[C@H](C(C)C)N(C)C(=O)[C@H]1CCC(C(=O)/C=C/CN(C)C)C1)C(=O)N1CCC[C@H](N1)C(=O)OCC(C)(C)C2 (some centres unmarked) [Example A282] , please.
Reply: 5.00 to 6.00

* * *

# Target or test system: NRAS WT (Homo sapiens (Human), UniProt P01111+P62937)
# Sequence (P01111 whole entry): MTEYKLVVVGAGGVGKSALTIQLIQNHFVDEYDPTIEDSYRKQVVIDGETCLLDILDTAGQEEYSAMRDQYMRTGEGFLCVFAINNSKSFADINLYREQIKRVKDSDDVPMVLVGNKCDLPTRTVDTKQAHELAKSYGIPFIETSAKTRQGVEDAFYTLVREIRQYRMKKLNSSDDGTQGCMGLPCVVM
# Sequence (P62937 whole entry): as the sequence (P62937 whole entry) above
# Procedure text: Ras-Raf (BRAF RBD) disruption / FRET / MOA assay, NRAS WT
# Format: biochemical
# Experimental context: read-out: IC50* NRAS WT FRET data
Observed property: IC50

CCn1c(-c2cccnc2[C@H](C)OC)c2c3cc(ccc31)-c1csc(n1)C[C@H](NC(=O)[C@@H](COC1CN(C(=O)C#CC(C)(C)N(C)C)C1)OC)C(=O)N1CCC[C@H](N1)C(=O)OCC(C)(C)C2 (atropisomer, axis not shown) [Example A660]
100 to 1000 nM
C=CC(=O)N1C[C@@H]2CN(C(=O)N(C)[C@H](C(=O)N[C@H]3Cc4nc(cs4)-c4ccc5c(c4)c(c(-c4cccnc4[C@H](C)OC)n5CC)CC(C)(C)COC(=O)[C@@H]4CCCN(N4)C3=O)C(C)C)C[C@@H]2C1 (atropisomer, axis not shown) [Example A389]
10 to 100 nM
C=CC(=O)C1C[C@@H](C(=O)N(C)[C@H](C(=O)N[C@H]2Cc3cc(O)cc(c3)-c3ccc4c(n3)c(c(-c3ccccc3CCOC)n4CC)CC(C)(C)COC(=O)[C@@H]3CCCN(N3)C2=O)C(C)C)CN1 (stereo partly shown) [Example A211]
1000 to 10000 nM

Moving on to another compound below.
Task item: Give NRAS WT (Homo sapiens (Human), UniProt P01111+P62937) IC50 for C=CC(=O)N1C[C@H]2CN(C(=O)N(C)[C@H](C(=O)N[C@H]3Cc4nc(cs4)-c4ccc5c(c4)c(c(-c4cccnc4[C@H](C)OC)n5CC)CC(C)(C)COC(=O)[C@@H]4CCCN(N4)C3=O)C(C)C)[C@H]2C1 (atropisomer, axis not shown) [Example A686]
Reply: 100 to 1000 nM

* * *

# Target or test system: K-Ras G12C (Homo sapiens (Human), UniProt P01116+P62937, G12C)
# Sequence (P01116-2 other isoform, or with tags, fused parts or gaps G12C): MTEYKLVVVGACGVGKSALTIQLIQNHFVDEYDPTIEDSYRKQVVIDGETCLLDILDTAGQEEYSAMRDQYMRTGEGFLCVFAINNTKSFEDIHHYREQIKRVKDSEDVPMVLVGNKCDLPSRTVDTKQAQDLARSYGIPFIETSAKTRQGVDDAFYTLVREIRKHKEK
# Sequence (P62937 whole entry): as the sequence (P62937 whole entry) above
# Procedure text: Ras-Raf (BRAF RBD) disruption / FRET / MOA assay, KRAS G12C
# Assay type: biochemical
# Experimental context: KRAS G12C; Ras-Raf disruption/FRET/MOA assay; read-out: IC50* KRAS G12C FRET data
Observed property: IC50

C=CC(=O)N1CC[C@H](C(=O)N(C)[C@H](C(=O)N[C@H]2Cc3cccc(c3)-c3ccc4c(c3)c(c(-c3cnccc3[C@H](C)OC)n4CC)CC(C)(C)COC(=O)[C@@H]3CCCN(N3)C2=O)C(C)C)C1
> 10 µM

We now examine a further compound.
Task item: Request the reported IC50 associated with C=CC(=O)N1CC2(C1)OCCN2C(=O)N(C)[C@H](C(=O)N[C@H]1Cc2nc(cs2)-c2ccc3c(c2)c(c(-c2cccnc2[C@H](C)OC)n3CC)CC(C)(C)COC(=O)[C@@H]2CCCN(N2)C1=O)C(C)C (atropisomer, axis not shown)
Reply: < 0.01 µM

* * *

For each of the molecules below, state its pIC50.
# Target or test system: KRAS G12S (Homo sapiens (Human), UniProt P01116+P62937, G12S)
# Sequence (P01116-2 other isoform, or with tags, fused parts or gaps G12S): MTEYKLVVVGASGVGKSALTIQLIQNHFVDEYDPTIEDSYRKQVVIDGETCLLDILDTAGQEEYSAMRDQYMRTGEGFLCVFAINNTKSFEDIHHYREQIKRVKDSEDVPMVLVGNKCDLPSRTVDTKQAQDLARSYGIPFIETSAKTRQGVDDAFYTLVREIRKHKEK
# Sequence (P62937 whole entry): as the sequence (P62937 whole entry) above
# Procedure text: Ras-Raf (BRAF RBD) disruption / FRET / MOA assay, KRAS G12S
# Assay type: biochemical
# Experimental context: Ras-Raf disruption/FRET/MOA assay; class symbols; read-out: KRAS G12S FRET data IC50
pIC50: −log10 of the molar value.

C=CC(=O)N1CC[C@H](C(=O)N(C)[C@H](C(=O)N[C@H]2Cc3cc(O)cc(c3)-c3ccc4nc(-c5cccnc5COC)c(n4c3)CC(C)(C)COC(=O)[C@@H]3CCCN(N3)C2=O)C(C)C)C1
< 5.00

For the next question, use this molecule.
Task item: Find the recorded pIC50 belonging to C=CC(=O)N1CC[C@H](C(=O)N(C)[C@H](C(=O)N[C@H]2Cc3cc(O)cc(c3)-c3ccc4c(c3)c(c(-c3ccccc3[C@H](C)OC)n4CC)CC(C)(C)COC(=O)[C@@H]3CCCN(N3)C2=O)C(C)C)C1 and report it.
Reply: 6.00 to 7.00

* * *

# Target or test system: NRAS G12C (Homo sapiens (Human), UniProt P01111+P62937, G12C)
# Sequence (P01111 whole entry G12C): as the sequence (P01111 whole entry) above, with G12C counted along it
# Sequence (P62937 whole entry): as the sequence (P62937 whole entry) above
# Procedure text: Ras-Raf (BRAF RBD) disruption / FRET / MOA assay, NRAS G12C
# Type: biochemical
# Experimental context: read-out: IC50* NRAS G12C FRET data
Observed property: IC50

C=CC(=O)N1CC2(CCN2C(=O)N(C)[C@H](C(=O)N[C@H]2Cc3cccc(n3)-c3ccc4c(c3)c(c(-c3cccnc3[C@H](C)OC)n4CC)CC(C)(C)COC(=O)[C@@H]3CCCN(N3)C2=O)C(C)C)C1 (atropisomer, axis not shown) [Example A636]
10 to 100 nM
C=CC(=O)N1CCC2(C1)CN(C(=O)N(C)[C@H](C(=O)N[C@H]1Cc3nc(cs3)-c3ccc4c(c3)c(c(-c3cccnc3[C@H](C)OC)n4CC(F)(F)F)CC(C)(C)COC(=O)[C@@H]3CCCN(N3)C1=O)C(C)C)C2 [Example A603]
10 to 100 nM

Below are some compounds; for each one, tell me its IC50.
1. C=CC(=O)N1CCOC2(CCN(C(=O)N(C)[C@H](C(=O)N[C@H]3C[C@H]4CN(CCO4)c4ccc5c(c4)c(c(-c4cccnc4[C@H](C)OC)n5CC)CC(C)(C)COC(=O)[C@@H]4CCCN(N4)C3=O)C(C)C)CC2)C1 [Example A564]
2. CCn1c(-c2cccnc2[C@H](C)OC)c2c3cc(ccc31)-c1cccc(c1)C[C@H](NC(=O)[C@H](C(C)C)N(C)C(=O)C1(F)CCN(C(=O)/C=C/CN(C)C)CC1)C(=O)N1CCC[C@H](N1)C(=O)OCC(C)(C)C2 (atropisomer, axis not shown) [Example A685]
3. CCn1c(-c2cccnc2COC)c2c3cc(ccc31)-c1cc(O)cc(c1)C[C@H](NC(=O)[C@H](C(C)C)N(C)C(=O)[C@H]1CCN(C(=O)C#CCN3[C@H](C)COC[C@@H]3C)C1)C(=O)N1CCC[C@H](N1)C(=O)OCC(C)(C)C2 [Example A237]
4. C=CC(=O)N(C)C[C@H]1CCN(C(=O)N(C)[C@H](C(=O)N[C@H]2Cc3nc(cs3)-c3ccc4c(c3)c(c(-c3cccnc3[C@H](C)OC)n4CC)CC(C)(C)COC(=O)[C@@H]3CCCN(N3)C2=O)C(C)C)C1 (atropisomer, axis not shown) [Example A653]
5. C=CC(=O)N(C)[C@H]1C[C@H](N(C)C(=O)N(C)[C@H](C(=O)N[C@H]2Cc3nc(cs3)-c3ccc4c(c3)c(c(-c3cccnc3[C@H](C)OC)n4CC)CC(C)(C)COC(=O)[C@@H]3CCCN(N3)C2=O)C(C)C)C1 (atropisomer, axis not shown) [Example A712]
6. C=CC(=O)N1CC[C@H](C(=O)N(C)[C@H](C(=O)N[C@H]2Cc3cc(O)cc(c3)-c3ccc4nc(-c5cccnc5[C@H](C)OC)n(c4c3)CC(C)(C)COC(=O)[C@@H]3CCCN(N3)C2=O)C(C)C)C1 [Example A242]

Reply:
1. 100 to 1000 nM
2. 10 to 100 nM
3. 10 to 100 nM
4. 10 to 100 nM
5. 10 to 100 nM
6. 1000 to 10000 nM

* * *

For each of the compounds below, state its IC50.
# Target or test system: NRAS WT (Homo sapiens (Human), UniProt P01111+P62937)
# Procedure text: Ras-Raf (BRAF RBD) disruption / FRET / MOA assay, NRAS WT
# Type: biochemical
# Experimental context: read-out: IC50* NRAS WT FRET data

These recorded examples may help you get a feel for the data.
C=CC(=O)N1CC[C@H]2[C@@H]1CN2C(=O)N(C)[C@H](C(=O)N[C@H]1Cc2nc(cs2)-c2ccc3c(c2)c(c(-c2cccnc2[C@H](C)OC)n3CC)CC(C)(C)COC(=O)[C@@H]2CCCN(N2)C1=O)C(C)C (atropisomer, axis not shown)
0.1 to 1 µM
CCn1c(-c2cccnc2[C@H](C)OC)c2c3cc(ccc31)-c1cc(CF)cc(c1)C[C@H](NC(=O)[C@H](C(C)C)N(C)C(=O)[C@H]1CCN(C(=O)C#CC(C)(C)N(C)C)C1)C(=O)N1CCC[C@H](N1)C(=O)OCC(C)(C)C2 (atropisomer, axis not shown)
1 to 10 µM

Batch: IC50 for all items listed.
1. C=CC(=O)N(C)CCN1CCN(C(=O)N(C)[C@H](C(=O)N[C@H]2Cc3cccc(c3)-c3ccc4c(c3)c(c(-c3cccnc3[C@H](C)OC)n4CC)CC(C)(C)COC(=O)[C@@H]3CCCN(N3)C2=O)C(C)C)C[C@H]1C (atropisomer, axis not shown)
2. CCn1c(-c2cccnc2[C@H](C)OC)c2c3cc(ccc31)-c1cccc(c1)C[C@H](NC(=O)[C@@H](COC1CN(C(=O)C#C[C@@H]3OCCCN3C)C1)C(C)C)C(=O)N1CCC[C@H](N1)C(=O)OCC(C)(C)C2 (atropisomer, axis not shown)
3. CO[C@@H](C)c1ncccc1-c1c2c3cc(ccc3n1CC(F)(F)F)-c1csc(n1)C[C@H](NC(=O)[C@H](C(C)C)N(C)C(=O)N1C[C@@H]3OCCN(C(=O)/C=C/CN(C)C)[C@@H]3C1)C(=O)N1CCC[C@H](N1)C(=O)OCC(C)(C)C2 (atropisomer, axis not shown)

Reply:
1: 1 to 10 µM; 2: 1 to 10 µM; 3: 0.1 to 1 µM

Please supply IC50 for each of the following items, keeping them in order.
1. C=CC(=O)N1CC[C@H]2[C@@H](C1)CN2C(=O)N(C)[C@H](C(=O)N[C@H]1Cc2nc(cs2)-c2ccc3c(c2)c(c(-c2cccnc2[C@H](C)OC)n3CC)CC(C)(C)COC(=O)[C@@H]2CCCN(N2)C1=O)C(C)C (atropisomer, axis not shown)
2. C=CC(=O)N1CCO[C@H]2CCN(C(=O)N(C)[C@H](C(=O)N[C@H]3Cc4nc(cs4)-c4ccc5c(c4)c(c(-c4cccnc4[C@H](C)OC)n5CC)CC(C)(C)COC(=O)[C@@H]4CCCN(N4)C3=O)C(C)C)C[C@@H]21 (atropisomer, axis not shown)

Reply:
["0.1 to 1 µM", "0.01 to 0.1 µM"]

Data origin: patent US11566007B2
